Sourced from patent US5552411A

- target: Human Neuropeptide Y1 Receptors (Homo sapiens)
- Construct: 50 μL SK-N-MC preparation containing 50 μg/tube membrane protein; host or cells: SK-N-MC human neuroblastoma cells (membranes)
- Sequence (P25929 whole entry): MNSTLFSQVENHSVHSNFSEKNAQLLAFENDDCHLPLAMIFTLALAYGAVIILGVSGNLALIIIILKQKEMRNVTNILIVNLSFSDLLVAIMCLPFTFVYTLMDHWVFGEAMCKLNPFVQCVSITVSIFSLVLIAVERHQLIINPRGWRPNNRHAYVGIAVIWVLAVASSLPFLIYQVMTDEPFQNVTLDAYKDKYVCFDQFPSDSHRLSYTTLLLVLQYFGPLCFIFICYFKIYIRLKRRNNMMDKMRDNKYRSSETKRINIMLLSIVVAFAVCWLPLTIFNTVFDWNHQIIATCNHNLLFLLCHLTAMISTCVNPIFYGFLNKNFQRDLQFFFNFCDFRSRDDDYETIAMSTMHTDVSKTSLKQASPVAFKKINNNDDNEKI
- assay-info: Receptor binding: inhibition of [^125 I]Peptide YY binding to human neuropeptide Y1 receptors (SK-N-MC membranes)
- condition-description: 30 pM [^125 I]-PYY, SK-N-MC membranes, 60 minutes, room temperature, pH 7.4; read-out: Inhibition of [^125 I]Peptide YY Binding to Human Neuropeptide Y1 Receptors Ki
Assign labels as follows, please: label 1 for Ki below 100 nM; label 0 for Ki equal to or exceeding 100 nM.

{"columns": ["compound", "label"],
 "data": [
  ["CCc1ccccc1S(=O)(=O)c1cc(N)c2ncccc2c1[N+](=O)[O-] [Example 18]", "label 0"],
  ["Cc1ccc(S(=O)(=O)c2cc(N)c3ncccc3c2[N+](=O)[O-])c(C)c1 [Example 22]", "label 0"],
  ["CC(C)c1ccccc1S(=O)(=O)c1cc(N)c2ncccc2c1[N+](=O)[O-] [Example 19]", "label 1"],
  ["Nc1cc(S(=O)(=O)c2ccccc2Br)c([N+](=O)[O-])c2cccnc12 [Example 24]", "label 0"],
  ["Cc1cccc(S(=O)(=O)c2cc(N)c3ncccc3c2[N+](=O)[O-])c1 [Example 9]", "label 0"],
  ["Cc1ccc(C)c(S(=O)(=O)c2cc(N)c3ncccc3c2[N+](=O)[O-])c1 [Example 6]", "label 0"],
  ["Nc1cc(S(=O)(=O)c2ccc(O)cc2)c([N+](=O)[O-])c2cccnc12 [Example 10]", "label 0"],
  ["Nc1cc(S(=O)(=O)c2ccc(Cl)cc2)c([N+](=O)[O-])c2cccnc12 [Example 2]", "label 0"],
  ["Nc1cc(S(=O)(=O)c2c(Cl)cccc2Cl)c([N+](=O)[O-])c2cccnc12 [Example 23]", "label 0"],
  ["Nc1cc(S(=O)(=O)c2ccccc2)c([N+](=O)[O-])c2cccnc12 [Example 1]", "label 0"],
  ["CC(C)(C)c1ccccc1S(=O)(=O)c1cc(N)c2ncccc2c1[N+](=O)[O-] [Example 31]", "label 0"],
  ["COc1ccc(S(=O)(=O)c2cc(N)c3ncccc3c2[N+](=O)[O-])cc1 [Example 3]", "label 0"],
  ["Nc1cc(S(=O)(=O)c2ccc(F)cc2)c([N+](=O)[O-])c2cccnc12 [Example 16]", "label 0"],
  ["Cc1cccc(C)c1S(=O)(=O)c1cc(N)c2ncccc2c1[N+](=O)[O-] [Example 14]", "label 0"],
  ["COc1ccccc1S(=O)(=O)c1cc(N)c2ncccc2c1[N+](=O)[O-] [Example 21]", "label 0"],
  ["Nc1cc(S(=O)(=O)c2cc(Cl)ccc2Cl)c([N+](=O)[O-])c2cccnc12 [Example 30]", "label 0"],
  ["Nc1cc(S(=O)(=O)c2cccc(Cl)c2Cl)c([N+](=O)[O-])c2cccnc12 [Example 26]", "label 1"],
  ["Nc1cc(S(=O)(=O)c2ccccc2F)c([N+](=O)[O-])c2cccnc12 [Example 27]", "label 1"],
  ["Cc1ccccc1S(=O)(=O)c1cc(N)c2ncccc2c1[N+](=O)[O-] [Example 12]", "label 0"],
  ["CC(=O)Nc1ccccc1S(=O)(=O)c1cc(N)c2ncccc2c1[N+](=O)[O-] [Example 25]", "label 0"],
  ["Nc1cc(S(=O)(=O)c2ccccc2C(F)(F)F)c([N+](=O)[O-])c2cccnc12 [Example 29]", "label 1"],
  ["CC(C)(C)c1ccc(S(=O)(=O)c2cc(N)c3ncccc3c2[N+](=O)[O-])cc1 [Example 7]", "label 0"],
  ["Nc1cc(S(=O)(=O)c2ccccc2Cl)c([N+](=O)[O-])c2cccnc12 [Example 13]", "label 1"],
  ["Nc1cc(S(=O)(=O)c2cccc(Cl)c2)c([N+](=O)[O-])c2cccnc12 [Example 15]", "label 0"],
  ["COc1cccc(S(=O)(=O)c2cc(N)c3ncccc3c2[N+](=O)[O-])c1 [Example 17]", "label 0"],
  ["N#Cc1ccc(S(=O)(=O)c2cc(N)c3ncccc3c2[N+](=O)[O-])cc1 [Example 11]", "label 0"],
  ["Cc1ccc(S(=O)(=O)c2cc(N)c3ncccc3c2[N+](=O)[O-])cc1 [Example 4]", "label 0"],
  ["Nc1cc(S(=O)(=O)c2cccc3ccccc23)c([N+](=O)[O-])c2cccnc12 [Example 20]", "label 1"],
  ["Nc1cc(S(=O)(=O)c2ccc3ccccc3c2)c([N+](=O)[O-])c2cccnc12 [Example 5]", "label 0"],
  ["CC(C)c1cccc(C(C)C)c1S(=O)(=O)c1cc(N)c2ncccc2c1[N+](=O)[O-] [Example 28]", "label 1"]
]}
